# Study System: T1, human BCMA on CHO cells (human)
# T1 chain: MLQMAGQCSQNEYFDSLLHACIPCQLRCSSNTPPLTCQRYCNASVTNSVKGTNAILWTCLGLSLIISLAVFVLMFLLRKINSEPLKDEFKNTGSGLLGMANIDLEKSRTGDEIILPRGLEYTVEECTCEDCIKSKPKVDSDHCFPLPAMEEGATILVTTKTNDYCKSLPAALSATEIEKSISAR
# Experimental Protocol: FACS
Please use Criterion met for EC50 under 20 nM and Criterion not met for everything else, ties included.

[
  {
    "Binder": "BCMA (PR)-CD28v8 P1AF7062, BCMA arm (antibody, V domains shown) VH: EVQLLESGGGLVQPGGSLRLSCAASGFTFSSYAMNWVRQAPGKGLEWVSAITASGGSTYYADSVKGRFTISRDNSKNTLYLQMNSLRAEDTAVYYCARYWPMSLWGQGTLVTVSS VL: EIVLTQSPGTLSLSPGERATLSCRASQSVSAYYLAWYQQKPGQAPRLLMYDASIRATGIPDRFSGSGSGTDFTLTISRLEPEDFAVYYCQQYERWPLTFGQGTKVEIKR",
    "Qualitative Label": "Criterion met"
  },
  {
    "Binder": "P1AG7285 BCMA arm (antibody, V domains shown) VH: QVQLVQSGAEVKKPGASVKVSCKASGYTFTNYWMHWVRQAPGQGLEWMGIIHPNSGSTNYNEKFQGRVTMTRDTSTSTVYMELSSLRSEDTAVYYCARGIYDYPFAYWGQGTLVTVSS VL: DIQMTQSPSSLSASVGDRVTITCRASESVSIHGTHLMHWYQQKPGKAPKLLIYAASSLQSGVPSRFSGSGSETDFTLTISSLQPEDFATYYCQQSIEDPYTFGGGTKVEIK",
    "Qualitative Label": "Criterion not met"
  },
  {
    "Binder": "P1AG7215 BCMA arm (antibody, V domains shown) VH: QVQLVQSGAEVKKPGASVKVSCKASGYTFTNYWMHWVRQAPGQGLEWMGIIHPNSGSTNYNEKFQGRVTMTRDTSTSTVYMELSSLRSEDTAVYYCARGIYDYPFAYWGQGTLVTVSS VL: DIQMTQSPSSLSASVGDRVTITCRASESVSIHGTHLMHWYQQKPGKAPKLLIYAASNLESGVPSRFSGSGSGTDFTLTISSLQPEDFATYYCQQSIEDPYTFGGGTKVEIK",
    "Qualitative Label": "Criterion met"
  },
  {
    "Binder": "P1AG7196 BCMA arm (antibody, V domains shown) VH: EVQLLESGGGLVQPGGSLRLSCAASGFTFSNAWMDWVRQAPGKGLEWVSQITAKSNNYATYYADSVKGRFTISRDNSKNTLYLQMNSLRAEDTAVYYCTDDGYHWGQGTLVTVSS VL: DIQMTQSPSSLSASVGDRVTITCRASEDIRNGLAWYQQKPGKAPKLLIYNANSLHTGVPSRFSGSGSGTDFTLTISSLQPEDFATYYCEDTSKYPYTFGQGTKLEIK",
    "Qualitative Label": "Criterion met"
  }
]

Now look at this one.
Prompt: EC50 strictly < 20 nM for this binder? P1AG7200 BCMA arm (antibody, V domains shown) VH: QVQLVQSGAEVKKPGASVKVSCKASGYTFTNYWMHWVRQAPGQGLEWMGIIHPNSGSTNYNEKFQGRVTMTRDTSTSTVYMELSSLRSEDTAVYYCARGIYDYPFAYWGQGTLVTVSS VL: DIQMTQSPSSLSASVGDRVTITCRASESVSIHGTHLMHWYQQKPGKAPKLLIYAASNLESGVPSRFSGSGSGTDFTLTISSLQPEDFATYYCQQSIEDPYTFGGGTKVEIK
Response: Criterion met
